Assay: chemical genetic growth profiling, strain panel (AID 1159580);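 further: tested at 20 µM; growth read once vehicle control cultures reached saturation at 30 °C; lower values mean less growth of the strain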
Details: S. cerevisiae deletion strains, growth OD, locus YGL086W, strain mad1
Out of some 5,500 compounds screened, about 2,000 (36%) were called active. Roughly 18% stayed inconclusive and do not appear here. No stated cut-off is given here; in the data, active means normalized growth mostly below about 0.91 (no sharp cut-off); inconclusive means no clear call, values can overlap the other calls; inactive means mostly above about 0.92. The list shows a part of the results.
Answer with one of the outcomes given here: active, inactive

Compound | Category Label
CN[C@@H]1[C@H](OC2[C@H](O[C@H]3[C@H](O)[C@@H](O)[C@H](N=C(N)N)[C@@H](O)[C@@H]3N=C(N)N)O[C@@H](C)[C@]2(O)C=O)O[C@@H](CO)[C@H](O)[C@H]1O (some centres not stated) | inactive

How did this test come out for CC1(C)C(=O)C=C[C@@]2(C)C1CC(=O)[C@@]1(C)C3=CC(=O)O[C@@H](c4ccoc4)[C@]3(C)CCC12 (some centres not stated) ? inactive

Thanks! And CN1CCN(C2=Nc3ccccc3Oc3ccc(Cl)cc32)CC1 ? inactive
